test system: MYB; assay: RT-qPCR splicing assay, MYB AJ/CJ mRNA; format: cell-based; conditions: Homo sapiens, increase in alternative junction mRNA, A673 or K562 cells, 24 hours

# compound, AC50
records = [
    ("c1cnn(-c2ccc3c(c2)COc2nc(NC4CCNCC4)ccc2-3)c1", "> 10 µM"),
    ("CC(C)(C)N[C@H]1CCN(c2ccc3c(n2)OCc2cc(-c4cn[nH]c4)ccc2-3)C1", "0.1 to 1 µM"),
    ("CCN(C)C1CCN(c2ccc3c(n2)OCc2cc(-c4cnnc(OC)c4)ccc2-3)C1 (centres unmarked)", "1 to 10 µM"),
    ("c1cnn(-c2ccc3c(c2)COc2nc(N4CC5(CCCNC5)C4)ccc2-3)c1", "> 10 µM"),
    ("c1cnn(-c2ccc3c(c2)COc2nc(N4CCC(NC5CC5)C4)ccc2-3)n1 (centres unmarked)", "> 10 µM"),
    ("Cc1cc(-c2ccc3c(c2)COc2nc(O[C@@H]4C[C@H]5C[C@@H](C4)N5)ccc2-3)ccn1", "1 to 10 µM"),
    ("CN(c1ccc2c(n1)OCCc1cc(-c3cn[nH]c3)ccc1-2)C1CC(C)(C)NC(C)(C)C1", "> 10 µM"),
    ("CN(c1ccc2c(n1)CCOc1cc(-n3cccn3)ccc1-2)C1CC(C)(C)NC(C)(C)C1", "> 10 µM"),
    ("CC(C)(C)NC1CCN(c2ccc3c(n2)OCc2cc(-c4ccnnc4)ccc2-3)C1 (centres unmarked)", "> 10 µM"),
    ("Fc1cc2c(cc1-c1cn[nH]c1)COc1nc(O[C@@H]3C[C@H]4CC(F)(F)[C@@H](C3)N4)ccc1-2", "< 0.1 µM"),
    ("CCN(c1ccc2c(n1)OCc1cc(-n3cccn3)ccc1-2)[C@@H]1C[C@H]2CCC[C@@H](C1)N2", "> 10 µM"),
    ("CN(c1ccc2c(c1)OCc1cc(-n3cccn3)ccc1-2)[C@@H]1C[C@H]2CC[C@@H](C1)N2", "> 10 µM"),
    ("CC1(C)CC(Oc2ccc3c(n2)OCc2cc(-c4cn[nH]c4)ccc2-3)CC(C)(C)N1", "> 10 µM"),
    ("c1cc2c(cc1-c1cn[nH]c1)COc1nc(N3CCC4(CCN4)C3)ccc1-2 (centres unmarked)", "> 10 µM"),
    ("CC1(C)CC(Nc2ccc3c(c2)COc2cc(-n4cccn4)ccc2-3)CC(C)(C)N1", "> 10 µM"),
    ("COc1cc(-c2cc3c(cc2F)-c2ccc(O[C@@H]4C[C@H]5CC[C@@H](C4)N5)nc2OC3)cnn1", "0.1 to 1 µM"),
    ("COc1cc(-c2ccc3c(c2)COc2nc(N4CCN[C@@H](C(C)C)C4)ccc2-3)cnn1", "0.1 to 1 µM"),
    ("CN1CCC2(CC1)CCN2c1ccc2c(n1)OCc1cc(-c3cn[nH]c3)ccc1-2", "> 10 µM"),
    ("c1cnn(-c2ccc3c(c2)COc2nc(O[C@@H]4C[C@H]5CCC[C@@H](C4)N5)ccc2-3)c1", "0.1 to 1 µM"),
    ("CN(c1cnc2c(n1)OCc1cc(-c3cn[nH]c3)ccc1-2)[C@@H]1C[C@H]2CC[C@@H](C1)N2", "0.1 to 1 µM"),
    ("CN(c1ccc2c(n1)OCc1cc(-n3cccn3)ccc1-2)[C@@H]1C[C@H]2CC[C@@H](C1)N2", "0.1 to 1 µM"),
    ("CN(c1ccc2c(n1)OCc1cc(-c3cn[nH]c3)ccc1-2)C1CC(C)(C)NC(C)(C)C1", "1 to 10 µM"),
    ("c1cnn(-c2ccc3c(c2)COc2nc(NC4CNC4)ccc2-3)c1", "> 10 µM"),
]

Origin of measurements: patent US20240400584A1
